test: Half life in monkey at 1 mg/kg, po; assay type: ADME, organism-based, Macaca mulatta; set-up: dose 1 mg/kg, route oral; conditions: rhesus monkey, in vivo
Property: half-life (h)
Answers are plain numbers, in h.

Reported half-life for CS(=O)(=O)N1CCc2c(-c3cnc(N)nc3)nc(N3CCOCC3)nc21 : what is it?
6.7

----------
test: AUC (infinity) in rat at 0.5 mg/kg, iv; format: ADME, organism-based; set-up: dose 0.5 mg/kg, route intravenous, time infinity; details: plasma
Property: AUC(0-inf) (ng·h/mL)
Answers are plain numbers, in ng·h/mL.

Reported AUC(0-inf) for CS(=O)(=O)N1CCc2c(-c3cnc(N)nc3)nc(N3CCOCC3)nc21 : what is it?
1350
